Target: Gamma-secretase
Assay: Inhibition of amyloid beta protein production in transfected H4 (neuroglioma) cells expressing […] constructs.
Threshold check on IC50: strictly below 3 µM is class 1; on or above 3 µM is class 0.

Q: Is IC50 of CCOC(=O)[C@H](O)[C@H](CC1CCCCC1)NC(=O)[C@@H](NC(=O)/C=C/c1ccccc1)C(C)C strictly below 3 µM?
Ans: class 0

Q: Is IC50 of CCOC(=O)[C@H](O)[C@H](CC1CCCCC1)NC(=O)[C@H](NC(=O)Cc1ccccc1)C(C)C strictly below 3 µM?
Ans: class 0

Q: Is IC50 of CCOC(=O)[C@H](O)[C@H](CC1CCCCC1)NC(=O)[C@H](CC(C)C)NC(=O)Cc1cccc(F)c1 strictly below 3 µM?
Ans: class 1

Q: Is IC50 of CCCC(=O)[C@H](O)[C@H](CC1CCCCC1)NC(=O)[C@H](CC(C)C)NC(=O)CCC(C)C strictly below 3 µM?
Ans: class 1

Q: Is IC50 of CCOC(=O)[C@H](O)[C@H](CC1CCCCC1)NC(=O)[C@H](Cc1ccccc1)NC(=O)Cc1ccccc1 strictly below 3 µM?
Ans: class 0

Q: Is IC50 of CCOC(=O)[C@H](O)[C@H](CC1CCCCC1)NC(=O)[C@@H](NC(=O)Cc1ccccc1)C(C)C strictly below 3 µM?
Ans: class 0

====

Target: Gamma-secretase
Assay: Inhibition of amyloid beta protein production in transfected H4 (neuroglioma) cells expressing […] constructs.
What pIC50 was measured for each of the following?
Keep it numeric: pIC50 is minus log10 of the concentration in mol/L.

The molecule listed as CC(C)CCC(=O)N[C@@H](CC(C)C)C(=O)N[C@@H](CC1CCCCC1)[C@@H](O)C(=O)Cc1ccccc1 has a reported pIC50 of 6.52

The molecule listed as CC(C)CCC(=O)N[C@@H](CC(C)C)C(=O)N[C@@H](CC1CCCCC1)[C@@H](O)C(=O)C(C)C has a reported pIC50 of 6.26

The molecule listed as CCOC(=O)[C@H](O)[C@H](CC1CCCCC1)NC(=O)[C@@H](NC(=O)Cc1ccccc1F)C(C)C has a reported pIC50 of 4.77

The molecule listed as CC(C)C[C@H](NC(=O)Cc1cc(F)cc(F)c1)C(=O)N[C@@H](CC1CCCCC1)[C@@H](O)C(=O)Cc1ccccc1 has a reported pIC50 of 6.80

The molecule listed as CCOC(=O)[C@H](O)[C@H](CC1CCCCC1)NC(=O)[C@H](CC(C)C)NC(=O)Cc1cc(F)cc(F)c1 has a reported pIC50 of 6.35

The molecule listed as CC(C)C[C@H](NC(=O)Cc1ccccc1)C(=O)N[C@@H](CC1CCCCC1)[C@@H](O)C(=O)Cc1ccccc1 has a reported pIC50 of 6.40

The molecule listed as CC(=O)[C@H](O)[C@H](CC1CCCCC1)NC(=O)[C@H](CC(C)C)NC(=O)Cc1cc(F)cc(F)c1 has a reported pIC50 of 6.74

The molecule listed as CC(C)C[C@H](NC(=O)Cc1ccccc1)C(=O)N[C@@H](CC1CCCCC1)[C@@H](O)C(=O)O has a reported pIC50 of 4.82

====

Molecular target: Gamma-secretase
Test: Inhibition of amyloid beta protein production in transfected H4 (neuroglioma) cells expressing […] constructs.
What IC50 was measured for each of the following?
Quick reminder: number only, in µM, skip the unit.

The compound listed as CC(C)CCC(=O)N[C@@H](CC(C)C)C(=O)N[C@@H](CC1CCCCC1)[C@@H](O)C(=O)c1ccccc1 has a reported IC50 of 4.5

The compound listed as CC(C)C[C@H](NC(=O)Cc1cccc(F)c1)C(=O)N[C@@H](CC1CCCCC1)[C@@H](O)C(=O)Cc1ccccc1 has a reported IC50 of 0.4

The compound listed as CCOC(=O)[C@H](O)[C@H](CC1CCCCC1)NC(=O)[C@@H](NC(=O)C(=O)c1ccccc1)C(C)C has a reported IC50 of 3.3
